Recorded values, source paper PMC5504291.

Target: T1, MLDSR (GST-MLDSR) (Rhodococcus jostii RHA1, UniProt A0A1H4Y2R3 2-168)
T1 sequence: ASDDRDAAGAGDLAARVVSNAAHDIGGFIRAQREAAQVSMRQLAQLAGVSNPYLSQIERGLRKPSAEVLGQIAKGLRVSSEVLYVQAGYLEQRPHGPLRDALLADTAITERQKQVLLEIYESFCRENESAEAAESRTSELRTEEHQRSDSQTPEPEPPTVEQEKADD
Assay: SPR; 1:1 model though DNA holds two sites; EMSA: 20 mM Tris-HCl pH 7.5, 150 mM NaCl, 5 mM MgCl2, 1 mM EDTA, 1 mM DTT, 4% glycerol, 24 C or room temperature, 30-40 min; SPR: 20 mM Tris-HCl pH 7.5, 150 mM
Settings: protein: recombinant; tags: N-terminal GST; label: 5'-biotin on strand 1; blunt
endpoint: Kd (nM)
Give bare numbers, in nM.

IN: State the recorded Kd for this entry: biotin-43 bp (motif 1+2) (dsDNA) DNA 1: TCCGCTAGCTGGGTGCTAACAGAGTGCTTGCAATTGCTAGCAC DNA 2: GTGCTAGCAATTGCAAGCACTCTGTTAGCACCCAGCTAGCGGA
OUT: 62
